# Tested on: S. aureus (JE2, NTML transposon mutants, Newman resistant isolates)
# test: POM-HEX half-maximal growth inhibitory concentration (IC50), microtiter broth dilution
# Assay type: cell-based
# condition description: Staphylococcus aureus, read-out: POM-HEX IC50, transposon mutant NE1283 (tnp, SAUSA300_0028)
quantity name: IC50 (nM)
Form entry: value (nM) — number only.

## Input Give the observed IC50 of CC(C)(C)C(=O)OCOP(=O)(OCOC(=O)C(C)(C)C)C1CCCN(O)C1=O (stereo not shown) for S. aureus (JE2, NTML transposon mutants, Newman resistant isolates).
## Output 2100

----------
Catalogue of compounds with associated kcat/kuncat
# target entity: SaFrmB (Staphylococcus aureus, UniProt A0A0H3KFB7)
# Construct: made in house; host or cells: E. coli BL21 (DE3)
# Sequence (A0A0H3KFB7 1-253): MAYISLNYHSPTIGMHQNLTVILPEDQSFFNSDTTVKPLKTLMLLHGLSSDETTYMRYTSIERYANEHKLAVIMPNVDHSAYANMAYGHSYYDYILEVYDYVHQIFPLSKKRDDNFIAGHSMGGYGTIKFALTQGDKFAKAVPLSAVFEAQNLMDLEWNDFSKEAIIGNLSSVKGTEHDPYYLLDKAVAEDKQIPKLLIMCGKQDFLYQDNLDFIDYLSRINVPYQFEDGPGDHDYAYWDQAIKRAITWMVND
# test: Esterase substrate specificity, fluorogenic SAR library kinetics
# Type: biochemical
# condition description: SaFrmB

## Input Fill in kcat/kuncat for record CCOCC(=O)OCOc1ccc2c(c1)Oc1cc(OCOC(=O)COCC)ccc1C21OC(=O)c2ccccc21
## Output 1.08 103

## Input Assign kcat/kuncat to the following record: CC(C)OCC(=O)OCOc1ccc2c(c1)Oc1cc(OCOC(=O)COC(C)C)ccc1C21OC(=O)c2ccccc21
## Output 1.49 103

## Input Entry CCCC(=O)OCOc1ccc2c(c1)Oc1cc(OCOC(=O)CCC)ccc1C21OC(=O)c2ccccc21 needs its kcat/kuncat filled in; supply it.
## Output 7.99 103

Further cases:
## Input Let me know recorded kcat/kuncat for COCCC(=O)OCOc1ccc2c(c1)Oc1cc(OCOC(=O)CCOC)ccc1C21OC(=O)c2ccccc21 , thanks.
## Output 1.40 103

## Input Could you please provide reported kcat/kuncat for COCC(=O)OCOc1ccc2c(c1)Oc1cc(OCOC(=O)COC)ccc1C21OC(=O)c2ccccc21 ? Thanks!
## Output 1.34 103

## Input Identify measured kcat/kuncat corresponding to CCCCC(=O)OCOc1ccc2c(c1)Oc1cc(OCOC(=O)CCCC)ccc1C21OC(=O)c2ccccc21
## Output 4.74 103

----------
Item-by-item account of kcat/kuncat
# target entity: SaGloB (Staphylococcus aureus)
# Sequence (P0DY75 1-207): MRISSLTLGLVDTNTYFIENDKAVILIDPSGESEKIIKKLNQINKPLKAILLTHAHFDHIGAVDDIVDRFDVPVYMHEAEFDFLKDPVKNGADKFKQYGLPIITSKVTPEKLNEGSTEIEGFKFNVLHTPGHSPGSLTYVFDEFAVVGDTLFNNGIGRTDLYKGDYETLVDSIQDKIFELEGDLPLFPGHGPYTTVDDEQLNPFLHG
# test: Esterase substrate specificity, fluorogenic SAR library kinetics
# Format: biochemical
# condition description: SaGloB, normalised to uncatalysed hydrolysis rate
# Experimental: Kinetic measurements were performed according to [White et al., 2018] with minor variation. […] The resulting change in fluorescence (λex = 485 nm, λem = 520 nm) was followed for 15 min at 37°C, collecting data every 30 s on a FLUOstar Omega microplate reader (BMG Labtech). Fluorescence measurements were converted to molar concentrations using a fluorescein standard curve (2.5 nmol–0.6 pmol). […] Values for kcat and kcat/Km were calculated based on amount of enzyme added when purified enzymes were used.

Some solved cases for reference:
## Input Provide measured kcat/kuncat value, entry: CCCC(=O)OCOc1ccc2c(c1)Oc1cc(OCOC(=O)CCC)ccc1C21OC(=O)c2ccccc21
## Output 21.2 103

## Input Output kcat/kuncat of CCOC(C)C(=O)OCOc1ccc2c(c1)Oc1cc(OCOC(=O)C(C)OCC)ccc1C21OC(=O)c2ccccc21 (centres unmarked)
## Output 6.80 103

## Input Answer with the recorded kcat/kuncat for the compound listed here: CSCC(=O)OCOc1ccc2c(c1)Oc1cc(OCOC(=O)CSC)ccc1C21OC(=O)c2ccccc21
## Output 11.4 103

## Input Given CSC(C)C(=O)OCOc1ccc2c(c1)Oc1cc(OCOC(=O)C(C)SC)ccc1C21OC(=O)c2ccccc21 (centres unmarked) , respond with its kcat/kuncat.
## Output 7.86 103

## Input // fetch kcat/kuncat given entry CC(C)CCC(=O)OCOc1ccc2c(c1)Oc1cc(OCOC(=O)CCC(C)C)ccc1C21OC(=O)c2ccccc21
## Output 12.7 103

---
## Input Give me measured kcat/kuncat, please, for this compound: CCSC(C)C(=O)OCOc1ccc2c(c1)Oc1cc(OCOC(=O)C(C)SCC)ccc1C21OC(=O)c2ccccc21 (centres unmarked)
## Output 9.01 103

## Input Return value of kcat/kuncat for input CCCOCC(=O)OCOc1ccc2c(c1)Oc1cc(OCOC(=O)COCCC)ccc1C21OC(=O)c2ccccc21 , no commentary.
## Output 4.91 103
